Assay: chemical genetic growth profiling, strain panel (AID 1159580);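 further: tested at 20 µM; growth read once vehicle control cultures reached saturation at 30 °C; 1 = growth at the plate median or of vehicle wells; lower values mean less growth of the strain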
Conditions: S. cerevisiae deletion strains, growth OD, locus YOL147C, strain pex11, active compounds read low
Hit rate of the full screen: of about 5,500 compounds, about 2,000 (36%) were called active. Not shown: some 18% with an inconclusive outcome. The list shows a part of the results.
Hi there, I'd appreciate the recorded normalized growth for every entry that follows.

Quick batch: normalized growth for everything below.
1. N[C@@H](CCC(=O)N[C@@H](CS)C(=O)NCC(=O)O)C(=O)O
2. Nc1ccc(C(=O)O)cc1

**A:**
1. 0.995 (inactive)
2. 1.01 (inactive)

###

Kindly supply the reported normalized growth values for the records listed here.
Assay: chemical genetic growth profiling, strain panel (AID 1159580);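 further: tested at 20 µM; growth read once vehicle control cultures reached saturation at 30 °C; 1 = growth at the plate median or of vehicle wells; lower values mean less growth of the strain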
Details: S. cerevisiae deletion strains, growth OD, locus YJL187C, strain SWE1, active compounds read low
The whole screen tested about 5,500 compounds, of which about 2,000 (36%) were called active. Inconclusive results (about 18%) are left out. This is one part of the list.
Give bare numbers.

Cc1cccc(Cn2nc(C(C)(C)C)cc2C(=O)O)c1 | 0.973
OCc1ccccc1-c1ccccc1 | 1
CC(=O)Oc1cccc(O)c1 | 1.02
O=C1c2ccccc2C(=O)N1CN(CCSc1ccccc1)CN1C(=O)c2ccccc2C1=O | 1.03
CC(=O)Oc1ccc(O)cc1 | 0.978

Parameter requested: normalized growth. Apply to each item below.
1. CCOC(=O)NNc1nncc2ccccc12
2. CC[N+](C)(C)c1cccc(O)c1

**A:**
1.02
1.01

###

Test: chemical genetic growth profiling, strain panel (AID 1159580);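 further: tested at 20 µM; growth read once vehicle control cultures reached saturation at 30 °C; 1 = growth at the plate median or of vehicle wells; lower values mean less growth of the strain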
Settings: S. cerevisiae deletion strains, growth OD, locus YLR268W, strain sec22
About 2,000 (36%) of roughly 5,500 compounds were called active. Roughly 18% stayed inconclusive and do not appear here. No stated cut-off is given here; in the data, active means normalized growth mostly below about 0.91 (no sharp cut-off); inconclusive means no clear call, values can overlap the other calls; inactive means mostly above about 0.92. The list shows a part of the results.
Allowed answers: active, inactive

CC(=O)OC1CCC2(C)C(CC(OC(C)=O)C3(C)C4=CC(=O)OC(c5ccoc5)C4(C)CCC23)C1(C)C (stereo not drawn) | inactive
CC(=O)O[C@@H]1CC[C@@]2(C)C(C[C@@H](OC(C)=O)[C@@]3(C)C4=CC(=O)O[C@@H](c5ccoc5)[C@]4(C)CCC23)C1(C)C (stereo partly drawn) | inactive

**Q:** Tell me the assay call for CC(=O)O[C@@H]1C=C[C@@]2(C)C(C[C@@H](OC(C)=O)[C@@]3(C)C4=CC(=O)O[C@@H](c5ccoc5)[C@]4(C)CCC23)C1(C)C (stereo partly drawn) please.
**A:** active

**Q:** Another compound to check: N[C@@H](CCC(=O)N[C@@H](CS)C(=O)NCC(=O)O)C(=O)O
**A:** inactive

**Q:** Input O=P1(N(CCCl)CCCl)NCCCO1 (stereo not drawn)
**A:** inactive

**Q:** CS(=O)(=O)c1ccc([C@@H](O)[C@@H](CO)NC(=O)C(Cl)Cl)cc1 , same question.
**A:** inactive

**Q:** Same read-out for COc1ccc2cc(CCC(C)=O)ccc2c1 ?
**A:** inactive

**Q:** Further, for COc1ccc([C@@H]2CC(=O)c3c(O)cc(O[C@@H]4O[C@H](CO[C@H]5O[C@@H](C)[C@H](O)[C@@H](O)[C@H]5O)[C@@H](O)[C@H](O)[C@H]4O)cc3O2)cc1O ?
**A:** inactive
